All values here come from ChEMBL document CHEMBL1155664.

Tested on: Raji
Experiment: Inhibition of 12-O-tetradecanoylphorbol-13-acetate-induced EBV-early antigen activation in human Raji cells assessed as EA activation at 16 nmol relative to 12-O-tetradecanoylphorbol-13-acetate
Assay type: cell-based
Design: scale not given: the % may be the effect or the level left
Settings: human gammaherpesvirus 4
// boundary case: Activity equal to 30% maps to false (0); strictly smaller maps to true (1)

Known results for molecules:
[
  {
    "molecule": "COc1cc(C=O)c(CC=C(C)C)c2c1[nH]c1ccccc12",
    "group": "true (1)"
  },
  {
    "molecule": "COC(=O)c1cc(O)c2[nH]c3ccccc3c2c1",
    "group": "false (0)"
  }
]

[Q] Lab log: compare recorded Activity with 30%; is it strictly lower for COc1cc2c(c3c1[nH]c1ccccc13)CC(C(C)(C)O)OC2=O (stereo not given) ?
[A] true (1)

[Q] Consider C=C(C)C1Cc2c(cc(O)c3[nH]c4ccccc4c23)C(=O)O1 (stereo not given) . Does its Activity lie strictly below 30%?
[A] true (1)

[Q] Please indicate whether the reported Activity of COC(=O)c1ccc2[nH]c3ccccc3c2c1 is strictly below 30%.
[A] false (0)
